Target: mouse sEH (Mus musculus, UniProt P34914)
Construct: made in house; host or cells: baculovirus expression system (insect cells)
Sequence (P34914 whole entry): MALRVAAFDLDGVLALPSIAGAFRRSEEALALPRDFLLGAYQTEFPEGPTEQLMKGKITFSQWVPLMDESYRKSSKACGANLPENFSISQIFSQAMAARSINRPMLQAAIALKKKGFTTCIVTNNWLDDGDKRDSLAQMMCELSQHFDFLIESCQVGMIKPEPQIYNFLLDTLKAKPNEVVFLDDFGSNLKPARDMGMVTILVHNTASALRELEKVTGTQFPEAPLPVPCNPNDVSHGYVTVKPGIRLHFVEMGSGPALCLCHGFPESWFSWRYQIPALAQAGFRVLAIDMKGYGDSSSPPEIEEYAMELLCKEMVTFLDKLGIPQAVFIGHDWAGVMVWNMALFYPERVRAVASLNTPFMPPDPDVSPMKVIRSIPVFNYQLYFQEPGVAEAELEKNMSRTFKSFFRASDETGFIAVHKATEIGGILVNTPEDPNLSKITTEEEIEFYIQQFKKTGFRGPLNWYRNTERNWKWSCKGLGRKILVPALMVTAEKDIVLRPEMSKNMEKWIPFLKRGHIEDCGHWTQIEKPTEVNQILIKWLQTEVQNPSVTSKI
Assay: Inhibition of recombinant mouse soluble EH, spectrophotometric NEP2C assay
Format: biochemical
Settings: recombinant enzyme, NEP2C 40 μM, 30° C., pH 7.4; read-out: Mouse sEH IC50
pIC50: −log10 of the molar value.
reported_property: pIC50

CCCCCCCCCCCCNC(=O)NCCF ... 4.30
CCCCCCCCCCNC(=O)NCC ... 5.24
CNC(=O)Nc1ccc(Cl)c(Cl)c1 ... 3.97
S=C(NC1CCCCC1)NC1CCCCC1 ... 4.00
CCCCCCCCNC(N)=O ... 5.98
